Source listed as the supplement of paper PMC6555819.

- System: PPARg:RXRa 30nM:10nM, anti-RXR (NR concentration 30 nM, RXRa partner concentration 10 nM)
- Procedure summary: PBM binding z-score (relative to random genomic background probes); higher = stronger binding; sequences stand for … in GC…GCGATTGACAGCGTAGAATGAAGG
PBM binding z-score below 0.09 gives 0 (no); PBM binding z-score at or above it gives 1 (yes).

Residue string | Target | Label value
CCTGCTAGGTCATGGTTAGCTAATCTACAGTATG | PPARg:RXRa 30nM:10nM, anti-RXR (NR concentration 30 nM, RXRa partner concentration 10 nM) | 1 (yes)
TAGCCTAGGTCATGCGGGCCAGTTTAGTGTCGGC | PPARg:RXRa 30nM:10nM, anti-RXR (NR concentration 30 nM, RXRa partner concentration 10 nM) | 0 (no)
ATATCTAGGTAACCAAGTTCAGTGAATGCCGAAC | PPARg:RXRa 30nM:10nM, anti-RXR (NR concentration 30 nM, RXRa partner concentration 10 nM) | 1 (yes)
TAGCCTAGGTCATGCGGGCCAGTATGGTGTCGGC | PPARg:RXRa 30nM:10nM, anti-RXR (NR concentration 30 nM, RXRa partner concentration 10 nM) | 0 (no)

[in] API: above_or_equal(metric=PBM binding z-score, cutoff=0.09) for item `GATACATGGTCAAGGCCAGAGTACGCGTATTGAT`
[out] 1 (yes)

[in] Check this sequence for PBM binding z-score at or above 0.09: `CCGACTGGGGCAAGGTAACCATAACGCACAGCCA`
[out] 0 (no)
